Values from patent US11718604B2

Tested on: VIOTR: wild violet (Viola tricolor)
Assay Name: Post-emergent herbicidal test, wild violet
Format: in vivo
Condition Parameters: post-emergence, 336 h, 70 g ai/ha, 14 days after application, read-out: Visual Growth Reduction (%) 14 Days After Application VIOTR
Values of pest or weed control at 70 g/ha greater than or equal to 40% map to Satisfied; values below map to Not satisfied.

INSERT INTO measurements (cpd_smiles, label) VALUES
  ('Nc1c(F)c(-c2ccc(Cl)c3c2OCO3)nc(C(=O)O)c1Cl', 'Satisfied'),
  ('Nc1c(F)c(-c2ccc(Cl)c3c2OCO3)nc(C(=O)OCc2ccccc2)c1Cl', 'Satisfied'),
  ('COC(=O)c1nc(-c2ccc(Cl)c3c2OC(F)(F)O3)c(F)c(N)c1Cl', 'Not satisfied'),
  ('C#CCOC(=O)c1nc(-c2ccc(Cl)c3c2OCO3)c(F)c(N)c1Cl', 'Satisfied'),
  ('Nc1c(F)c(-c2ccc(Cl)c3c2OC(F)(F)O3)nc(C(=O)O)c1Cl', 'Satisfied'),
  ('COC(=O)c1nc(-c2cccc3c2OCO3)c(F)c(N)c1Cl', 'Not satisfied'),
  ('COC(=O)c1nc(-c2ccc(Br)c3c2OC(F)(F)O3)c(F)c(N)c1Cl', 'Not satisfied'),
  ('Nc1c(F)c(-c2ccc(I)c3c2OC(F)(F)O3)nc(C(=O)O)c1Cl', 'Not satisfied');
